Values were extracted from patent US8809498B2.

Starred links: 1 amine or outer side, 2 acyl side, 3 side chain; linkers in the order of their positions; H or OH if unused. Non-standard residues stand in square brackets, D forms with d. Residues, ends and D or L forms follow the SMILES beside them. *: point of attachment. X1 = CC(F)(F)C[C@H](N[*:1])C(=O)[*:2]; Sta = CC(C)C[C@H](N)[C@@H](O)CC(=O)O; Isovaleryl = CC(C)CC(=O)*; Orn = NCCC[C@H](N)C(=O)O; Dab = NCC[C@H](N)C(=O)O; Abu = CC[C@H](N)C(=O)O
// Sap1 of Candida albicans (Candida albicans, UniProt P0CY27) IC50 records
property-name: IC50

- compound: "CC(C)CC(=O)N[C@H](C(=O)N[C@H](C(=O)N[C@@H](CC(C)C)[C@@H](O)CC(=O)N[C@@H](CCCN)C(=O)N[C@@H](CC(C)C)[C@@H](O)CC(=O)O)C(C)C)C(C)C [P1'(Orn)-pepstatin, (N-Iva-Val)-Val-Sta-Orn-Sta] (Isovaleryl-VV[Sta][Orn][Sta]-OH)"
  readout-value: "~20 nM"
- compound: "CC(C)CC(=O)N[C@H](C(=O)N[C@@H](CC(C)(F)F)C(=O)N[C@@H](CC(C)C)[C@@H](O)CC(=O)N[C@@H](C)C(=O)N[C@@H](CC(C)C)[C@@H](O)CC(=O)O)C(C)C [P2(DfpGly)-pepstatin, (N-Iva-Val)-DfpGly-Sta-Ala-Sta] (Isovaleryl-V[X1][Sta]A[Sta]-OH)"
  readout-value: "~20 nM"
- compound: "CC(C)CC(=O)N[C@H](C(=O)N[C@@H](CCCCN)C(=O)N[C@@H](CC(C)C)[C@@H](O)CC(=O)N[C@@H](C)C(=O)N[C@@H](CC(C)C)[C@@H](O)CC(=O)O)C(C)C [P2(Lys)-pepstatin, (N-Iva-Val)-Lys-Sta-Ala-Sta] (Isovaleryl-VK[Sta]A[Sta]-OH)"
  readout-value: "> 500 nM"
- compound: "CC(C)(C)NC(=O)[C@@H]1C[C@@H]2CCCC[C@@H]2CN1C[C@@H](O)[C@H](Cc1ccccc1)NC(=O)[C@H](CC(N)=O)NC(=O)c1ccc2ccccc2n1 [Saquinavir, reference compound]"
  readout-value: "~50000 nM"
- compound: "CC(C)CC(=O)N[C@H](C(=O)N[C@H](C(=O)N[C@@H](CC(C)C)[C@@H](O)CC(=O)N[C@@H](CCCCN)C(=O)N[C@@H](CC(C)C)[C@@H](O)CC(=O)O)C(C)C)C(C)C [P1'(Lys)-pepstatin, (N-Iva-Val)-Val-Sta-Lys-Sta] (Isovaleryl-VV[Sta]K[Sta]-OH)"
  readout-value: "< 5 nM"
- compound: "CC(C)CC(=O)N[C@H](C(=O)N[C@H](C(=O)N[C@@H](CC(C)C)[C@@H](O)CC(=O)N[C@@H](CCN)C(=O)N[C@@H](CC(C)C)[C@@H](O)CC(=O)O)C(C)C)C(C)C [P1'(Dab)-pepstatin, (N-Iva-Val)-Val-Sta-Dab-Sta] (Isovaleryl-VV[Sta][Dab][Sta]-OH)"
  readout-value: "~400 nM"
- compound: "CC(C)CC(=O)N[C@H](C(=O)N[C@H](C(=O)N[C@@H](CC(C)C)[C@@H](O)CC(=O)N[C@@H](C)C(=O)N[C@@H](CC(C)C)[C@@H](O)CC(=O)O)C(C)C)C(C)C [Pepstatin A] (Isovaleryl-VV[Sta]A[Sta]-OH)"
  readout-value: "~7 nM"
- compound: "CC[C@H](NC(=O)[C@@H](NC(=O)CC(C)C)C(C)C)C(=O)N[C@@H](CC(C)C)[C@@H](O)CC(=O)N[C@@H](C)C(=O)N[C@@H](CC(C)C)[C@@H](O)CC(=O)O [P2(Abu)-pepstatin, (N-Iva-Val)-Abu-Sta-Ala-Sta, reference compound] (Isovaleryl-V[Abu][Sta]A[Sta]-OH)"
  readout-value: "~50 nM"
- compound: "CC(C)CC(=O)N[C@H](C(=O)N[C@@H](CC(C)C)C(=O)N[C@@H](CC(C)C)[C@@H](O)CC(=O)N[C@@H](C)C(=O)N[C@@H](CC(C)C)[C@@H](O)CC(=O)O)C(C)C [P2(Leu)-pepstatin, (N-Iva-Val)-Leu-Sta-Ala-Sta, reference compound] (Isovaleryl-VL[Sta]A[Sta]-OH)"
  readout-value: "> 500 nM"

====

// Sap3 of Candida albicans (Candida albicans) IC50 records
Non-standard residues stand in square brackets, D forms with d. Residues, ends and D or L forms follow the SMILES beside them. *: point of attachment. Phe(2-F) = N[C@@H](Cc1ccccc1F)C(=O)O; Sta = CC(C)C[C@H](N)[C@@H](O)CC(=O)O; Isovaleryl = CC(C)CC(=O)*; Nle = CCCC[C@H](N)C(=O)O
property-name: IC50

- compound: "CCCC[C@H](NC(=O)[C@@H](NC(=O)CC(C)C)C(C)C)C(=O)N[C@@H](CC(C)C)[C@@H](O)CC(=O)N[C@@H](C)C(=O)N[C@@H](CC(C)C)[C@@H](O)CC(=O)O [P2(Nle)-pepstatin, (N-Iva-Val)-N/e-Sta-Ala-Sta] (Isovaleryl-V[Nle][Sta]A[Sta]-OH)"
  readout-value: "< 0.005 µM"
- compound: "Cc1c(O)cccc1C(=O)N[C@@H](CSc1ccccc1)[C@H](O)CN1C[C@H]2CCCC[C@H]2C[C@H]1C(=O)NC(C)(C)C [Nelfinavir, reference compound]"
  readout-value: "> 312 µM"
- compound: "CC(C)CC(=O)N[C@H](C(=O)N[C@@H](CC(C)C)C(=O)N[C@@H](CC(C)C)[C@@H](O)CC(=O)N[C@@H](C)C(=O)N[C@@H](CC(C)C)[C@@H](O)CC(=O)O)C(C)C [P2(Leu)-pepstatin, (N-Iva-Val)-Leu-Sta-Ala-Sta, reference compound] (Isovaleryl-VL[Sta]A[Sta]-OH)"
  readout-value: "0.1 µM"
- compound: "CC(C)CC(=O)N[C@@H](Cc1ccccc1F)C(=O)N[C@H](C(=O)N[C@@H](CC(C)C)[C@@H](O)CC(=O)N[C@@H](C)C(=O)N[C@@H](CC(C)C)[C@@H](O)CC(=O)O)C(C)C [P3(o-FPhe)-pepstatin, (N-Iva-oFPhe)-Val-Sta-Ala-Sta] (Isovaleryl-[Phe(2-F)]V[Sta]A[Sta]-OH)"
  readout-value: "~0.02 µM"

====

Non-standard residues stand in square brackets, D forms with d. Residues, ends and D or L forms follow the SMILES beside them. *: point of attachment. Phe(2-F) = N[C@@H](Cc1ccccc1F)C(=O)O; Sta = CC(C)C[C@H](N)[C@@H](O)CC(=O)O; Isovaleryl = CC(C)CC(=O)*; Dab = NCC[C@H](N)C(=O)O
// Sap6 of Candida albicans (Candida albicans) IC50 records

- compound: "COc1ccc(C[C@H](NC(=O)CC(C)C)C(=O)N[C@H](C(=O)N[C@@H](CC(C)C)[C@@H](O)CC(=O)N[C@@H](C)C(=O)N[C@@H](CC(C)C)[C@@H](O)CC(=O)O)C(C)C)cc1 [P3(O—MeTyr)-pepstatin, (N-Iva-OMeTyr)-Val-Sta-Ala-Sta] (Isovaleryl-Y(Me)V[Sta]A[Sta]-OH)"
  IC50: "~10 nM"
- compound: "CC(C)CN(C[C@@H](O)[C@H](Cc1ccccc1)NC(=O)O[C@H]1CCOC1)S(=O)(=O)c1ccc(N)cc1 [Amprenavir, reference compound]"
  IC50: "> 50000 nM"
- compound: "CC(C)CC(=O)N[C@@H](Cc1ccccc1F)C(=O)N[C@H](C(=O)N[C@@H](CC(C)C)[C@@H](O)CC(=O)N[C@@H](C)C(=O)N[C@@H](CC(C)C)[C@@H](O)CC(=O)O)C(C)C [P3(o-FPhe)-pepstatin, (N-Iva-oFPhe)-Val-Sta-Ala-Sta] (Isovaleryl-[Phe(2-F)]V[Sta]A[Sta]-OH)"
  IC50: "~100 nM"
- compound: "CC(C)CC(=O)N[C@H](C(=O)N[C@H](C(=O)N[C@@H](CC(C)C)[C@@H](O)CC(=O)N[C@@H](CCN)C(=O)N[C@@H](CC(C)C)[C@@H](O)CC(=O)O)C(C)C)C(C)C [P1'(Dab)-pepstatin, (N-Iva-Val)-Val-Sta-Dab-Sta] (Isovaleryl-VV[Sta][Dab][Sta]-OH)"
  IC50: "> 500 nM"

====

// Sap3 of Candida albicans (Candida albicans, UniProt P0CY29) IC50 records
Non-standard residues stand in square brackets, D forms with d. Residues, ends and D or L forms follow the SMILES beside them. *: point of attachment. Sta = CC(C)C[C@H](N)[C@@H](O)CC(=O)O; Isovaleryl = CC(C)CC(=O)*; Orn = NCCC[C@H](N)C(=O)O; Abu = CC[C@H](N)C(=O)O
property-name: IC50

- compound: "Cc1cccc(C)c1OCC(=O)N[C@@H](Cc1ccccc1)[C@@H](O)C[C@H](Cc1ccccc1)NC(=O)[C@H](C(C)C)N1CCCNC1=O [Lopinavir, reference compound]"
  tested-system: "Sap3 of Candida albicans (Candida albicans, UniProt P0CY29)"
  readout-value: "> 312000 nM"
- compound: "CC(C)CC(=O)N[C@@H](Cc1ccccc1)C(=O)N[C@H](C(=O)N[C@@H](CC(C)C)[C@@H](O)CC(=O)N[C@@H](C)C(=O)N[C@@H](CC(C)C)[C@@H](O)CC(=O)O)C(C)C [P3(Phe)-pepstatin, (N-Iva-Phe)-Val-Sta-Ala-Sta] (Isovaleryl-FV[Sta]A[Sta]-OH)"
  tested-system: "Sap3 of Candida albicans (Candida albicans, UniProt P0CY29)"
  readout-value: "< 5 nM"
- compound: "CC(C)CC(=O)N[C@H](C(=O)N[C@H](C(=O)N[C@@H](CC(C)C)[C@@H](O)CC(=O)N[C@@H](CCCN)C(=O)N[C@@H](CC(C)C)[C@@H](O)CC(=O)O)C(C)C)C(C)C [P1'(Orn)-pepstatin, (N-Iva-Val)-Val-Sta-Orn-Sta] (Isovaleryl-VV[Sta][Orn][Sta]-OH)"
  tested-system: "Sap3 of Candida albicans (Candida albicans, UniProt P0CY29)"
  readout-value: "~15 nM"
- compound: "CC[C@H](NC(=O)[C@@H](NC(=O)CC(C)C)C(C)C)C(=O)N[C@@H](CC(C)C)[C@@H](O)CC(=O)N[C@@H](C)C(=O)N[C@@H](CC(C)C)[C@@H](O)CC(=O)O [P2(Abu)-pepstatin, (N-Iva-Val)-Abu-Sta-Ala-Sta, reference compound] (Isovaleryl-V[Abu][Sta]A[Sta]-OH)"
  tested-system: "Sap3 of Candida albicans (Candida albicans, UniProt P0CY29)"
  readout-value: "< 5 nM"
